Cited source: patent US11066414B2

Test system: TNFα
Assay: Cot Monocyte TNFα Cell Based Assay
Conditions: Homo sapiens, Monocyte, read-out: EC50 TNF, LPS-stimulated human monocytes, TNFα
outcome-measure: EC50 (nM)

A selection of reference data follows.
| compound | obs-value |
| --- | --- |
| N#Cc1cnc2c(Cl)cc(N[C@H](c3c[nH]nn3)c3csc4c3CCN(C3COC3)C4)cc2c1Nc1ccc(Cl)c(Cl)c1F | 739 |
| CC(C)(C)CNc1c(C#N)cnc2c(C#N)cc(N[C@H](c3cn(C4CC4)nn3)c3cccc4c3CNC4=O)cc12 | 981 |

1 = COc1ccnc2cccc([C@H](Nc3cc(Cl)c4ncc(C#N)c(NCC(C)(C)C)c4c3)c3cn(C4(C(F)(F)F)CC4)nn3)c12
2 = N#CCCC(Nc1c(C#N)cnc2c(Cl)cc(N[C@H](c3cn(C4CC4)nn3)c3csc4c3CCN(C3COC3)C4)cc12)c1ccccc1 (stereo partly drawn)
3 = CC(C)n1cc([C@@H](Nc2cc(Cl)c3ncc(C#N)c(Nc4ccc(F)c(Cl)c4)c3c2)c2csc3c2CCNC3)nn1
4 = [2H][C@](Nc1cc(Cl)c2ncc(C#N)c(N[C@H](CC#N)c3ccccc3)c2c1)(c1ccc(F)nc1)c1cn(C2CC2)nn1
[ask] Place the items in sequence of falling EC50. Reply with the item labels sorted in the order that was asked for.
[reply] 1, 3, 4, 2
